measurement.protocol: qHTS assay for MDR1-selective chemotherapeutics: Primary screen using the drug-selected MDR subline cells KB-V1; note: nearly all actives have a fitted effect of over 60% in size; note: potency is the fitted concentration of half-maximal effect
stated.conditions: KB-V1 MDR cells viability, CellTiter-Glo, 72 h; series mostly up to 46.1 µM
Screen size: about 400,000 compounds; about 13,000 (3.2%) were called active. Roughly 18% stayed inconclusive and do not appear here. Only a selection was taken, and actives are over-represented in it overall.
recorded.endpoint: Potency

// solved cases for Potency follow
>  <compound>
CCOC(=O)Cn1c(SC)nc2sc3c(c2c1=O)CC(C)(C)OC3

>  <Potency>
inactive

$$$$
>  <compound>
CCc1nc(N2CCN(C(C)=O)CC2)c2c3c(sc2n1)CCCC3

>  <Potency>
inactive

$$$$
>  <compound>
CN(C)c1nc(N)nc(CSc2ccccn2)n1

>  <Potency>
inactive

$$$$
>  <compound>
CCNC(=O)c1cc2c(c(-c3cccc(-c4cncnc4)c3)n1)[C@H](CCO)N(C(C)=O)C2

>  <Potency>
inactive

$$$$
>  <compound>
CCOC(=O)[C@]12CCCC=C1N(Cc1cccc3ccccc13)C(=O)[C@H](CC(=O)NCC13CC4CC(CC(C4)C1)C3)C2

>  <Potency>
inactive

$$$$
>  <compound>
CC(NS(=O)(=O)c1ccc(Br)cc1)C(=O)NCC1CCCO1 (stereo unspecified)

>  <Potency>
inactive

$$$$
>  <compound>
Cc1c(C(=O)N(C)C)sc2c1c(=O)n(-c1ccc(F)cc1)c(=O)n2CC(=O)N(C)c1ccccc1

>  <Potency>
inactive

$$$$
>  <compound>
O=C(OC1CC2CC1[C@H]1CCCCN1C2=O)N1CCOCC1 (stereo partly specified)

>  <Potency>
inactive

$$$$
>  <compound>
CCOC(=O)[C@]12CCC=C1N(Cc1ccco1)C(=O)[C@H](CC(=O)NCc1cccc(C(F)(F)F)c1)C2

>  <Potency>
inactive

$$$$
>  <compound>
Cc1cc(C)c2cc(CN(Cc3cccs3)Cc3nnnn3CC3CCCO3)c(=O)[nH]c2c1 (stereo unspecified)

>  <Potency>
16.4 µM (active)

$$$$

CC1=C(C(=O)N2CCOCC2)CC(CC(=O)NCc2ccco2)C(=O)N1Cc1ccc(F)cc1 (stereo unspecified) has a reported Potency of inactive

Reported Potency for "Cc1ccc(S(=O)(=O)N(C)C)cc1NC(=O)COC(=O)/C=C/c1cccs1" was inactive

Entry NC(Cc1ccc(F)cc1)c1csc(Nc2nncc3ccccc23)n1 (stereo unspecified) ; Potency = inactive

Recorded result, "CC[C@]1(O)C[C@@H]2CN(CCc3c([nH]c4ccccc34)[C@@](C(=O)OC)(c3cc4c(cc3OC)N(C)[C@H]3[C@@](O)(C(=O)OC)[C@H](OC(C)=O)[C@]5(CC)C=CCN6CC[C@]43[C@@H]65)C2)C1" , Potency: 5.17 µM (active)

# Potency (compound: CCC(O)CNc1nc(-n2nc(C)cc2C)nc2sc3c(c12)CC(C)(C)OC3 (stereo unspecified) ) is 2.59 µM (active)

GET /value?item= OC(CNCC1CCCO1)Cn1c2ccc(Br)cc2c2cc(Br)ccc21 (stereo unspecified) &field=Potency returns 23.1 µM (active)

###

measurement.protocol: qHTS assay for MDR1-selective chemotherapeutics: Primary screen using the drug-selected MDR subline cells KB-V1; note: nearly all actives have a fitted effect of over 60% in size
stated.conditions: KB-V1 MDR cells viability, CellTiter-Glo, 72 h; series mostly up to 46.1 µM
Among all 400,000 compounds or so, about 13,000 (3.2%) were called active. Roughly 18% stayed inconclusive and do not appear here. The call rests on the fitted dose curve; in most records, active means well fitted cell-killing curve with a large enough effect; inconclusive means small, poorly fitted or top-dose-only effect, or effect the other way; inactive means flat fitted curve, though single readings scatter. This excerpt belongs to a sample that is enriched for actives.
Would you mind answering with one of these outcomes? active, inactive

-- ask Hi, sorry to bother you, what did the test record for "COC(=O)c1ccc(COc2ccc(/C=N/NC(=O)C(=O)Nc3ccc(OC)cc3)cc2OC)o1" ?
-- reply inactive

-- ask Call for entry "CN(N=O)c1ccc(C=C2c3ccccc3-c3ccccc32)cc1" :
-- reply inactive

-- ask Hi, do you know how "CCC(=O)N1Cc2cc(C(=O)NCc3cccc(F)c3)nc(-c3cccc(C4=CCCC4)c3)c2[C@H]1CCO" came out in this test?
-- reply inactive

-- ask Please indicate how the test categorized "CCN(CC)c1ccc(NC(=O)c2ccc(Cl)nc2)cc1" .
-- reply active

-- ask Per the assay record, what outcome was assigned to CCCC(=O)N1CCC1(C)C(=O)NCc1ccc(SC)cc1 (centres undefined) ?
-- reply inactive

-- ask How did this test come out for "CC1(C)Cc2cccc(OCC(N)=O)c2O1" ?
-- reply inactive

-- ask Query: recorded result category for "O=c1cc(CSc2ncn[nH]2)[nH]c2ccc(F)cc12" in this test
-- reply inactive

-- ask Write down the call the test reported for this molecule. Item: "COc1ccc(C(=O)COC(=O)c2c(C)noc2C)cc1Cl"
-- reply inactive

-- ask // return assay outcome for COc1ccc(NC(=O)C2(C)Cc3c(-c4cccc(NC(C)=O)c4)ccnc3O2)cc1OC (centres undefined)
-- reply inactive

-- ask Hi, do you know how "O=[N+]([O-])c1ccc(N2CCSCC2)cc1O" came out in this test?
-- reply inactive

-- ask For this molecule, state the assay outcome: "CC1CCN(c2ccc([N+](=O)[O-])c(SCCO)c2)CC1"
-- reply inactive

-- ask Field: outcome | Entry: "CCCCCNC(=O)c1cccnc1SCC(=O)Nc1ccccc1OC"
-- reply active

-- ask // return assay outcome for "O=C(NC1CCCC1)c1cc(-c2ccccc2)on1"
-- reply active

-- ask Write down the call the test reported for this molecule. Item: "COCCNC(=O)CSc1nc(N)c(NC(=O)c2ccco2)c(=O)[nH]1"
-- reply inactive

-- ask Kindly provide the recorded test outcome for the following molecule: CC(C)N1C(=O)c2ccccc2NC(=O)C1C(=O)NCc1cccs1 (centres undefined)
-- reply inactive

-- ask Per the records of this test, what outcome belongs to CC(NC(=O)CC1SC(N)=NC1=O)c1ccccc1 (centres undefined) ?
-- reply inactive

-- ask Which outcome was assigned to "CCOC(=O)c1csc(NC(=O)c2ccc(S(=O)(=O)N3CCCC3)cc2)n1" in this test?
-- reply inactive

-- ask For "Cn1c(-c2ccco2)nc2cc3ccccc3cc21" , what call appears in the results of this test?
-- reply active

-- ask What was the test verdict on "CN1CCN(c2ccc([N+](=O)[O-])c(Sc3nc4ccccc4[nH]3)c2)CC1" ?
-- reply active

-- ask Recorded test call requested for "CSc1nc(-c2ccccc2)nc(C(Cl)Cl)n1"
-- reply active

-- ask What call does the record list for "Cc1c(Cl)cccc1NC(=O)Nc1ccc(C(=O)N2CCCC2)cc1" ?
-- reply active

-- ask Would you mind telling me which call this test gave "O=C(Nc1ccc(Cl)cc1)Nc1ccc(C(=O)N2CCOCC2)cc1" ?
-- reply inactive

-- ask What is the recorded call for this molecule in the test? "COc1ccccc1-n1c(-c2cc(-c3ccco3)[nH]n2)n[nH]c1=S"
-- reply inactive

-- ask Assay result, entry "Fc1ccc(-c2nnc(CSc3nnc(-c4ccc5c(c4)OCO5)o3)o2)cc1" — outcome?
-- reply inactive

-- ask I'd appreciate the recorded outcome for "CCSc1nnc(-c2cc3c(s2)-c2ccccc2CC3)o1" from this test.
-- reply inactive

-- ask Could you please tell me the result logged for "COc1cc(/C=N/NC(=O)c2ccoc2C)ccc1OCCN1CCCCC1" in this assay?
-- reply inactive

-- ask # fetch the recorded call for "Cc1ccc(-c2nn3c(=O)cc(CN4CCN(S(=O)(=O)c5ccc(Cl)cc5)CC4)nc3s2)cc1" here
-- reply inactive

-- ask Hi team, can someone confirm the assay call for "O=C(NNC(=O)c1ccc(Cl)nc1)c1ccc(Br)cc1" ?
-- reply inactive

-- ask Recorded test outcome, item "O=C(NC1CCCCCCC1)c1cccs1"
-- reply inactive

-- ask Hi team, can someone confirm the assay call for "Fc1ccc(CSc2nnc(-c3cc4c(s3)-c3ccccc3CC4)o2)cc1" ?
-- reply active

-- ask Hi team, can someone confirm the assay call for "CC(C)(C)c1ccc(C(=O)NCCC(=O)NCc2ccco2)cc1" ?
-- reply inactive

-- ask Please indicate how the test categorized "O=C(NC1CCCCC1)c1cc(C2CC2)on1" .
-- reply inactive

-- ask # lookup: test call for "O=C1Nc2ccccc2NC(c2ccc3c(c2)OCO3)=C1N(Cc1ccc(F)cc1)C(=O)c1ccco1"
-- reply inactive

-- ask In this assay, the call recorded for "COc1ccc(C(=O)Nc2nc(-c3ccc(S(=O)(=O)N4CCOCC4)cc3)cs2)cc1" was what?
-- reply active
